# PROTOCOL: Cytotoxicity assay (Alamar blue), HEK293
# Assay type: cell-based
# CONDITION SET: human, HEK293 cells; HEK293, 24 h
The compounds listed here are annotated with their CC50 at 24 h.
Just the number please, in µM, no unit attached.

{"SMILES": "O=C(O)c1c(O)cc(Cl)cc1/C=C/c1ccc2ccccc2c1", "READING": 37.6}
{"SMILES": "CCN(CC)C(=O)c1c(O)cccc1CCc1ccc2ccccc2c1", "READING": 38.7}
{"SMILES": "Cc1cc(O)c(C(=O)O)c(CCc2ccc3ccccc3c2)c1", "READING": 39.9}

From here, focus on the item given below.
Could you share which CC50 at 24 h value was measured for `COc1cc(O)c(C(=O)O)c(CCc2ccc3ccccc3c2)c1` ?
64.4

* * *

# TESTED ON: SOX18[109] HMG fragment (Mus musculus (Mouse), UniProt P43680)
# Sequence (P43680 69-177): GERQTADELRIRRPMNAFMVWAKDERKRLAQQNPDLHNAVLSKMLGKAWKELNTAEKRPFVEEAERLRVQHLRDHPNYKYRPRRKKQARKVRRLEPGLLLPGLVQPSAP
# PROTOCOL: FP DNA-binding competition assay, SOX18[109] HMG fragment
# CONDITION SET: 200 μM, SOX18/DNA binding
TEST READOUT: FP bound fraction (%) 200 μM
Just the number please, in %, no unit attached.

{"COMPOUND": "COc1cc(O)c(C(=O)O)c(C=Cc2ccc3ccccc3c2)c1 (mixture of isomers) [Sm28]", "DISPLAY UNIT": "%", "FP bound fraction (%) 200 μM": 19.3}
{"COMPOUND": "O=C(O)c1c(O)cc(Cl)cc1CCc1ccc2ccccc2c1 [Sm33]", "DISPLAY UNIT": "%", "FP bound fraction (%) 200 μM": 9.9}
{"COMPOUND": "CCN(CC)C(=O)c1c(O)cc(O)cc1CCc1ccc2ccccc2c1 [Sm26]", "DISPLAY UNIT": "%", "FP bound fraction (%) 200 μM": 128.3}

Could you share which FP bound fraction (%) 200 μM value was measured for COc1cccc(C=Cc2ccc3ccccc3c2)c1C(=O)O (mixture of isomers) [Sm19] ?
107.6

And what about the compound O=C(O)c1c(O)cccc1C=Cc1ccc2ccccc2c1 (mixture of isomers) [Sm20] ?
11.9

* * *

# TESTED ON: SOX18-MEF2C interaction (Homo sapiens (Human))
# Sequence (P35713 whole entry): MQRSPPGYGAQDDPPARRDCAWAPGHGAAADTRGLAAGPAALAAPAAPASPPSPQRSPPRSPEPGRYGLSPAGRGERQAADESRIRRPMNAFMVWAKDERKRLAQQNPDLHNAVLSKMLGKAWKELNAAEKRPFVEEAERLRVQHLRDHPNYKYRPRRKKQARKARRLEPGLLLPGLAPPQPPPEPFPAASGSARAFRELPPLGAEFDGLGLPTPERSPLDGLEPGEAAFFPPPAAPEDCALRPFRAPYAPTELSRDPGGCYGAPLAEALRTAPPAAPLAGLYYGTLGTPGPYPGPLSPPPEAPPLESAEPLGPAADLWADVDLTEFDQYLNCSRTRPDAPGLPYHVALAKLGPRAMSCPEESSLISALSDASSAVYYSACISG
# PROTOCOL: ALPHAScreen SOX18-MEF2C protein-protein interaction
# CONDITION SET: read-out: SOX18-MEF2C interaction disruption IC50
TEST READOUT: pIC50
pIC50 (log units): -log10 of the concentration in mol/L.

Could you share which pIC50 value was measured for O=C(O)c1ccccc1Nc1cccc(C(F)(F)F)c1 [Flufenamic acid, reference compound] ?
4.54

* * *

# PROTOCOL: Cytotoxicity assay (Alamar blue), COS-7
# Assay type: cell-based, Monkey
# CONDITION SET: chlorocebus aethiops, COS-7 cells; COS7, 24 h; read-out: In vitro cytotoxicity CC50 ± SD COS7
TEST READOUT: CC50 at 24 h (µM)
Just the number please, in µM, no unit attached.

{"MOLECULE": "Cc1ccc(Cl)c(Nc2ccccc2C(=O)O)c1Cl [Meclofenamic acid, reference compound]", "READING": 16}

From here, focus on the item given below.
Could you share which CC50 at 24 h value was measured for O=C(O)c1ccccc1Nc1cccc(C(F)(F)F)c1 [Flufenamic acid, reference compound] ?
65

* * *

The molecules listed here are annotated with their CC50 at 24 h.
# PROTOCOL: Cytotoxicity assay (Alamar blue), HEK293
# Format: cell-based
# CONDITION SET: human, HEK293 cells; HEK293, 24 h

{"MOLECULE": "Oc1cc(CCc2ccccc2)cc(O)c1O", "READING": "> 100 µM"}
{"MOLECULE": "O=C(O)c1c(O)cccc1CCc1ccccc1 [Sm22, 2-hydroxy-6-phenethylbenzoic acid]", "READING": "> 100 µM"}
{"MOLECULE": "COc1cc(/C=C/c2ccc3ccccc3c2)c(C(=O)O)c(OC)c1", "READING": "> 100 µM"}

Could you share which CC50 at 24 h value was measured for COc1cc(/C=C/c2ccccc2)cc(OC)c1OC [Sm38, (E)-1,2,3-trimethoxy-5-styrylbenzene] ?
> 100 µM

And what about the molecule O=C(O)c1c(O)cccc1/C=C/c1ccccc1 [Sm21, (E)-2-hydroxy-6-styrylbenzoic acid] ?
> 100 µM

And what about the molecule `CCN(CC)C(=O)c1c(/C=C\c2ccc3ccccc3c2)cccc1OC` ?
> 100 µM

And what about the molecule `COc1cc(Cl)cc(/C=C/c2ccc3ccccc3c2)c1C(=O)O` ?
92.7 µM

And what about the molecule `Oc1cc(CCc2ccc3ccccc3c2)cc(O)c1O` ?
> 100 µM

And what about the molecule `COc1cc(C)cc(/C=C/c2ccc3ccccc3c2)c1C(=O)O` ?
> 100 µM

And what about the molecule `Cc1cc(O)c(C(=O)O)c(/C=C/c2ccc3ccccc3c2)c1` ?
52.2 µM

And what about the molecule `COc1cc(CCc2ccccc2)cc(OC)c1OC` ?
> 100 µM

* * *

# PROTOCOL: Cytotoxicity assay (Alamar blue), HepG2
# Assay type: cell-based
# CONDITION SET: human, HepG2 cells; HepG2, 24 h
TEST READOUT: CC50 at 24 h

Examples from the recorded data:
{"MOLECULE": "Oc1cc(CCc2ccc3ccccc3c2)cc(O)c1O [Sm44]", "CC50 at 24 h": "> 100 µM"}
{"MOLECULE": "O=C(O)c1c(O)cc(Cl)cc1/C=C/c1ccc2ccccc2c1 [Sm32]", "CC50 at 24 h": "24 µM"}
{"MOLECULE": "COc1cc(C)cc(/C=C/c2ccc3ccccc3c2)c1C(=O)O [Sm34]", "CC50 at 24 h": "> 100 µM"}
{"MOLECULE": "COc1cc(Cl)cc(/C=C/c2ccc3ccccc3c2)c1C(=O)O [Sm31]", "CC50 at 24 h": "> 100 µM"}

From here, focus on the item given below.
Could you share which CC50 at 24 h value was measured for COc1cc(/C=C\c2ccc3ccccc3c2)cc(OC)c1OC [Sm41] ?
> 100 µM

* * *

The compounds listed here are annotated with their IC50.
# TESTED ON: SOX18 (Mus musculus (Mouse), UniProt P43680)
# Sequence (P43680 whole entry): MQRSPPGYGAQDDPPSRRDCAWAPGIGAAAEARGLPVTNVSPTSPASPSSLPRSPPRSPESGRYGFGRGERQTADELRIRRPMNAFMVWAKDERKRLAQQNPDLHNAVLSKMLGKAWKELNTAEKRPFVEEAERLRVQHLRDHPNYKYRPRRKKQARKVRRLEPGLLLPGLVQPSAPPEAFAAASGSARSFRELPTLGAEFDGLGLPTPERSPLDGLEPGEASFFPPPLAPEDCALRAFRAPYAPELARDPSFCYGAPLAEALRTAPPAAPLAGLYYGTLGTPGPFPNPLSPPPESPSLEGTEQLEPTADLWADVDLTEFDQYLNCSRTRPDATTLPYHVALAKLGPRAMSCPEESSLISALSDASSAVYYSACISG
# PROTOCOL: Cell-based luciferase SOX18-dependent transactivation (Vcam1 promoter) in COS-7
# CONDITION SET: COS7, 24 h, read-out: In vitro efficacy in cell IC50 ± SD COS7 (Luc)
Just the number please, in µM, no unit attached.

{"COMPOUND": "O=C(O)c1cccnc1Nc1cccc(C(F)(F)F)c1 [Nifumic acid, niflumic acid, reference compound]", "DISPLAY UNIT": "µM", "IC50": 50.5}

From here, focus on the item given below.
Could you share which IC50 value was measured for `O=C(O)c1c(O)cccc1COCCc1ccccc1` ?
21

* * *

# TESTED ON: UniProt P43680
# PROTOCOL: FP DNA-binding competition assay, SOX18[109] HMG fragment
# CONDITION SET: 200 μM, SOX18/DNA binding; read-out: FP bound fraction (%) 200 μM
So basically, if remaining activity at 200 µM comes in under 90% it's Met, and if it's 90% or more it's Not met.

{"COMPOUND": "O=C(O)c1c(O)cccc1CCc1ccccc1 [Sm22, 2-hydroxy-6-phenethylbenzoic acid]", "DISCRETE LABEL": "Not met"}

Hi there! Is remaining activity at 200 µM for `CCN(CC)C(=O)c1c(O)cccc1CCc1ccc2ccccc2c1` below 90%, do you know?
Not met

And what about the compound `Oc1cc(CCc2ccccc2)cc(O)c1O` ?
Not met

And what about the compound `COc1cc(CCc2ccccc2)cc(OC)c1OC` ?
Not met

And what about the compound `O=C(O)c1c(O)cc(Cl)cc1/C=C/c1ccc2ccccc2c1` ?
Met

And what about the compound COc1cc(/C=C\c2ccccc2)cc(OC)c1OC [Sm37, (Z)-1,2,3-trimethoxy-5-styrylbenzene] ?
Not met

* * *

# PROTOCOL: Cytotoxicity assay (Alamar blue), HEK293
# Assay type: cell-based
# CONDITION SET: human, HEK293 cells; HEK293, 24 h
TEST READOUT: CC50 at 24 h

Could you share which CC50 at 24 h value was measured for COc1cc(/C=C\c2ccccc2)cc(OC)c1OC [Sm37, (Z)-1,2,3-trimethoxy-5-styrylbenzene] ?
> 100 µM

And what about the compound COc1cc(CCc2ccc3ccccc3c2)c(C(=O)O)c(OC)c1 [Sm30] ?
> 100 µM

And what about the compound COc1cc(CCc2ccc3ccccc3c2)cc(OC)c1OC [Sm43, 2-(3,4,5-trimethoxyphenethyl)naphthalene] ?
> 100 µM

And what about the compound COc1cc(/C=C\c2ccc3ccccc3c2)cc(OC)c1OC [Sm41] ?
> 100 µM

And what about the compound CCN(CC)C(=O)c1c(/C=C/c2ccc3ccccc3c2)cccc1OC [Sm16] ?
> 100 µM
